- protocol: protein stability index of a GFP-peptide fusion (yeast GPS) (PSI 1-4); higher = more stable; sorted into four equal gates, so the index is relative within each strain
- study.conditions: ubr1∆
endpoint: protein stability index

INSERT INTO measurements (sequence_code, recorded_value) VALUES
  ('AHMWPRVHDQPLIWQLL [POP3]', 1.51),
  ('LESLKPIDDTMTLLTDS [MTW1]', 2.98),
  ('CDDESGDNEYITLRTSG [MCD1]', 3.47),
  ('LPSWSLGKWYSKEDYET [ARP7]', 1.09),
  ('VNHLLLFAREIAKSQDK [DPB4]', 2.08),
  ('QFSQLNDPNAAVNMTQN [MED6]', 2.62),
  ('DNEDSDNLFGETESSVS [SWI3]', 2.93),
  ('FYAAVQKNYADPEKDSI [SIN4]', 1.59);

----------
protein stability index for assorted sequences
- protocol: protein stability index of a GFP-peptide fusion (yeast GPS) (PSI 1-4); higher = more stable; sorted into four equal gates, so the index is relative within each strain
- study.conditions: san1∆
endpoint: protein stability index

INSERT INTO measurements (sequence_code, recorded_value) VALUES
  ('KREIQEALSEKPTREPT [RPC53]', 3.05),
  ('MYTRLCICSGMLFEMDG [SIN4]', 1.48),
  ('QGIIYAKVNRPAKIVNF [RPN5]', 2.37),
  ('EEQEKINSAPDFTQEDE [ISW2]', 3.39),
  ('VGGTTSISGFKEALLGQ [ARP9]', 2.51),
  ('LVIGIFKRDLLREKEDK [YJL039C/NUP192]', 2.86),
  ('KCLVEKSICFENCLNND [SWI1]', 2.69),
  ('IEWCSRCNDNLMRSCFY [YJL039C/NUP192]', 2.9),
  ('KVLNEISKTTLTLDPRY [RPN3]', 2.89),
  ('RKILESSNIVNENDSQA [YIL149C/MLP2]', 2.89),
  ('KRAFENFKKFNERRKDL [SMC3]', 3.51),
  ('GELDVLQIESVTKETVH [PRP8]', 2.55),
  ('DLWNNFGNIMDNLLEMS [RRP6]', 3.21),
  ('ANCQRQLTEFWTELCQR [NNF1]', 3);

----------
- protocol: protein stability index of a GFP-peptide fusion (yeast GPS) (PSI 1-4); higher = more stable; sorted into four equal gates, so the index is relative within each strain
- study.conditions: san1∆
So basically: protein stability index at 3 or higher? That is class 1. Lower than 3? That is class 0.

INSERT INTO assay_data (sequence_code, group_label) VALUES
  ('RKLINYTKKHLSSHSST [RPN4]', 'class 0'),
  ('SLFQLSKLGKNLQTVHF [GRR1]', 'class 0'),
  ('NALEHKYFTESDIPVSE [SSN3]', 'class 0'),
  ('ETATLIMNELYRMKGGR [SMC3]', 'class 0'),
  ('FTNVLTKYSDVLGFLQL [YJL039C/NUP192]', 'class 0'),
  ('DESLIRELYKYVRKHDP [PRP28]', 'class 0'),
  ('PNISHSNIDYQTLLANS [SNF2]', 'class 0'),
  ('VKLWEEDPDQEECSGRR [YGL100W/SEH1]', 'class 1'),
  ('RCFENLQNKSFKSVLPI [UBP6]', 'class 0'),
  ('NLDAAAAGTSQARTATL [RPC10]', 'class 0'),
  ('TNHVLEVFSVLGIEAAR [RPO31]', 'class 0'),
  ('VEFKLPKELVPSHEKLK [CDC53]', 'class 0'),
  ('TFDGIRMSSEEVNSLLL [GRR1]', 'class 1'),
  ('LEKISSSNKDLEDEKMK [SMC4]', 'class 1'),
  ('VKTTLVSLTQLRCVKYL [RPC82]', 'class 0'),
  ('KFPATNVTTILDEIFSG [ECM29]', 'class 0'),
  ('SDNKKRSGSNAAASLPS [RPC82]', 'class 0'),
  ('PFQVSSFVKETKLHSGD [SRB8]', 'class 0'),
  ('ADTLDPALLRPGRLDRK [RPT3]', 'class 1'),
  ('TMYMEVYTAIYNYCVNK [CDC53]', 'class 0'),
  ('FLQSQRQQQQRSILQSL [SWI1]', 'class 0'),
  ('TKSSLNDLDYDLIADTI [YML103C/NUP188]', 'class 0'),
  ('VSTAAAATVRSTIRRLR [RPL43A]', 'class 0'),
  ('SEYNFLEGSVSLPRFSK [DIS3]', 'class 1'),
  ('STSSGKVSYAVKKPQKS [SNM1]', 'class 0'),
  ('IPVGDNTVVGISGDISD [PRE4]', 'class 0');

----------
- protocol: protein stability index of a GFP-peptide fusion (yeast GPS) (PSI 1-4); higher = more stable; sorted into four equal gates, so the index is relative within each strain
- study.conditions: san1∆
Please mark Satisfied if the recorded protein stability index is equal to or greater than 3, and Not satisfied if it falls below.

INSERT INTO measurements (sequence_code, group_label) VALUES
  ('QKLWLLECQLFPQGLNI [SSN8]', 'Not satisfied'),
  ('NMMDAISFVLGVRSNHL [SMC1]', 'Not satisfied'),
  ('LLNEYRPHQSRESLIML [MED7]', 'Not satisfied'),
  ('KGPIIISKNPSNGIFYG [SIR2]', 'Not satisfied'),
  ('LAAIVSTVIEEFTLFMD [YGL172W/NUP49]', 'Not satisfied'),
  ('YGKLRNGMFCQVPSSLI [RRP4]', 'Not satisfied'),
  ('IRSSRSRGIVIGSGAMS [RPP1]', 'Not satisfied'),
  ('FNKNLGKGPGCGFWQPA [PRP8]', 'Satisfied'),
  ('TSPQYIPSPLSSTKPPG [NUT1]', 'Not satisfied'),
  ('EEESLHVFQYANRPRLV [RPC37]', 'Not satisfied'),
  ('RANVYVGFLVQLDLTGI [PRP8]', 'Not satisfied'),
  ('SGELLQGIVRVYSKQAT [MCD1]', 'Not satisfied'),
  ('FDENIARDIISHNFQNA [PCI8]', 'Not satisfied'),
  ('PERWLPLRDRSTYRPKK [SRP72]', 'Not satisfied'),
  ('LISSSLSNLSKDIKANL [YCS4]', 'Not satisfied'),
  ('FVDDMLRDYRFEDATRE [SNF5]', 'Satisfied'),
  ('TEKLSPLASEESLTNSN [YGL100W/SEH1]', 'Satisfied'),
  ('LAKSGSTEETTANTGTI [TAF14]', 'Not satisfied'),
  ('EFTSKIGFTIKEYENHS [SMC1]', 'Not satisfied'),
  ('CGLMTVIAKLNHNQFEC [RPB2]', 'Not satisfied'),
  ('GGQTKPVFHKKAKTTKK [RPL42A]', 'Not satisfied'),
  ('FGSADDTYPYLTGEWST [FAS1]', 'Not satisfied'),
  ('RHKNKHIQGFPTLGERL [DSN1]', 'Satisfied'),
  ('SENQRQIFCVFSGKGVH [GRR1]', 'Not satisfied'),
  ('SLTDVAFFTYDAGVTFN [ECM29]', 'Not satisfied'),
  ('IQSKAVEQGYEDAFNFW [YCG1]', 'Satisfied'),
  ('RILAMCVKNHGQSSSIQ [YCS4]', 'Not satisfied'),
  ('WMMNGALQILNSGIIPG [FAS2]', 'Not satisfied'),
  ('HRTIVIRRAYLHYIPKY [RPS11A]', 'Not satisfied'),
  ('EKITQISLLCKNFKGIE [PCI8]', 'Not satisfied'),
  ('ITSINVENDTFIERNFT [FAS2]', 'Satisfied'),
  ('PAMAMEDLKNFIFQIIE [SRB8]', 'Not satisfied'),
  ('DDLIHFTLKQWNRLTIS [COR1]', 'Not satisfied'),
  ('ILSEILCQINKCSTRGL [YML103C/NUP188]', 'Not satisfied'),
  ('ILNSHFDALRSLDDNST [YJL041W/NSP1]', 'Not satisfied'),
  ('EIKKLLATNSLVEEFML [DIS3]', 'Not satisfied'),
  ('QRKTVNSDDILSLHENY [POP1]', 'Not satisfied'),
  ('EYLTLNDFNDLNIDWST [MED2]', 'Not satisfied'),
  ('QFLYEKHYKNIPRNSPL [RPC82]', 'Not satisfied'),
  ('VNHLLLFAREIAKSQDK [DPB4]', 'Not satisfied'),
  ('LKEYQSKIIVFPRDGKA [RPL13B]', 'Satisfied'),
  ('SRKQKVIKTLTVDVSSP [RPL22B]', 'Not satisfied'),
  ('ERSKQLNEKFQELRKKV [SMC2]', 'Satisfied'),
  ('VTTKDDLSGADIQAMCT [RPT2]', 'Satisfied'),
  ('GTLEYGTCFGGSKLEDM [RET1]', 'Satisfied');

Just for reference, the supplement of paper PMC9732359 is where these values come from.
